Attribute: IC50
# Tested on: cervical cancer Hela
# methodSummary: cells
# Format: cell-based
# appliedConditions: cultured 48 h, MTT

Solved entries (count: 2):
molecule | recordedMetric | valueMeasured
COc1cc(C2c3cc4c(cc3C(Nc3ccc5ncccc5c3)C3COC(=O)C23)OCO4)cc(OC)c1OC (stereo not drawn) | IC50 | 0.7 µM
COc1cc(C2c3cc4c(cc3C(Nc3ccc5c(c3N)C(=O)c3ccccc3C5=O)C3COC(=O)C23)OCO4)cc(OC)c1O (stereo not drawn) | IC50 | > 100 µM

Turning to the following molecule.
// field: IC50; key: COc1cc(C2c3cc4c(cc3C(Nc3ccc5c(c3)C(=O)c3ccc(N)cc3C5=O)C3COC(=O)C23)OCO4)cc(OC)c1O (stereo not drawn) ; value = > 100 µM

====

# System: cervical cancer Hela
# methodSummary: cells
# Format: cell-based
# appliedConditions: cultured 48 h, MTT
Listing of recorded pIC50 by entry.
# pIC50 is unitless: minus log10 of the molar concentration; print number only

Past entries and their recorded results:
compound | pIC50
COc1cc([C@@H]2c3cc4c(cc3[C@@H](Nc3nc(N)nc5ccccc35)[C@@H]3COC(=O)[C@H]23)OCO4)cc(OC)c1OC [Compound 6] | 4.72
COc1cc([C@@H]2c3cc4c(cc3[C@@H](Nc3ccc5c(c3)C(=O)c3ccccc3C5=O)[C@@H]3COC(=O)[C@H]23)OCO4)cc(OC)c1O [Compound 21] | 5.72
COc1cc(C2c3cc4c(cc3C(Nc3ccc5[nH]ncc5c3)C3COC(=O)C23)OCO4)cc(OC)c1OC (stereo not drawn) [Compound 12, 4β-NH-(5-indazolamine) podophyllotoxin] | 6.30

The recorded pIC50 for COc1cc(C2c3cc4c(cc3C(Nc3cccc5ncccc35)C3COC(=O)C23)OCO4)cc(OC)c1O (stereo not drawn) [Compound 27] is 5.68

So for COc1cc([C@@H]2c3cc4c(cc3[C@@H](Nc3cccc5ccc(C)nc35)[C@@H]3COC(=O)[C@H]23)OCO4)cc(OC)c1OC [Compound 11] , the logged pIC50 turned out to be 5.82

====

Listed here are compounds together with their documented pIC50.
# System: cervical cancer Hela
# methodSummary: cells
# Assay type: cell-based
# appliedConditions: cultured 48 h, MTT
# Description: A cell strain: Hepatoma HepG2, cervical cancer Hela, lung cancer A549, breast cancer MCF7 cell line and human normal liver cell HL7702 were purchased from Wuhan Boster Biological Technology Co., Ltd.; […]
Please express pIC50 as -log10 of the molar concentration.

Observe how each entry below is paired with its result.
compound | pIC50
COc1cc(C2c3cc4c(cc3C(Nc3ccc5cn[nH]c5c3)C3COC(=O)C23)OCO4)cc(OC)c1OC (centres unmarked) | 5.68
COc1cc(C2c3cc4c(cc3C(Nc3ccccc3-c3nc5ccccc5[nH]3)C3COC(=O)C23)OCO4)cc(OC)c1OC (centres unmarked) | 5.32
COc1cc(C2c3cc4c(cc3C(Nc3ccc5[nH]ccc5c3)C3COC(=O)C23)OCO4)cc(OC)c1OC (centres unmarked) | 5.42
COc1cc([C@@H]2c3cc4c(cc3[C@@H](Nc3cccc5cccnc35)[C@@H]3COC(=O)[C@H]23)OCO4)cc(OC)c1OC | 5.57

Field pIC50 (cervical cancer Hela), entry COc1cc(C2c3cc4c(cc3C(Nc3cccc5c3C(=O)c3cccc(N)c3C5=O)C3COC(=O)C23)OCO4)cc(OC)c1OC (centres unmarked) : 5.34
